- testedOn: T1, RSV-F.mmh (Respiratory Syncytial Virus)
- T1 construct: also called recombinant RSV-F; soluble monomeric RSV-F
- testProtocol: SPR (Biacore), mAb captured via Fc, soluble RSV-F.mmh injected, 25 C
Please go through the items and note down their t½.
I'd appreciate it if you included the unit after the number.

# binder, testResult
data = [
    ("H1H3567P (antibody, V domains shown) VH: QVQLVQSGAEVKKPGASVKVSCKASGYTLTGYYLHWVRQAPGQGLEWMGWINPTSGGTNYAQKFQGRVTMTRDTSISAAFMELSRLRSDDTAVYHCAREFWPHGMDVWGQGTTVTVSS VL: AIQMTQSPSSLSASVGDRVTITCRASQAIRNDLGWYQQKPGKAPKLLIYASSSLQSGVPSRFSGSGSGTDFTLTISSLQPEDFATYYCLADYKYTWTFGQGTKVEIK", "4 min"),
    ("H1H3592P2 (antibody, V domains shown) VH: EVQLVESGGDLVQPGRSLRLSCVASGFTFDDYAMHWVRQAPGKGLEWVSGVSWSGSTVGYADSVKGRFTVSRDNAQKSLYLQMNSLRAEDTALYYCVKDAYKYNYYYYGLDVWGQGTTVTVSS VL: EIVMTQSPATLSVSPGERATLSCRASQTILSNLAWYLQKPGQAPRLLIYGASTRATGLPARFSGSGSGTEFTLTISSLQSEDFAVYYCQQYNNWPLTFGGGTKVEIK", "8 min"),
]

We now examine a further binder.
Reported t½ for H1H3627N (antibody, V domains shown) VH: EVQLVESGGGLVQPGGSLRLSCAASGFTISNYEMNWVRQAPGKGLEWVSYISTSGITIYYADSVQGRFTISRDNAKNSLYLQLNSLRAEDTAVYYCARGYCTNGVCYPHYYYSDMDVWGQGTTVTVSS VL: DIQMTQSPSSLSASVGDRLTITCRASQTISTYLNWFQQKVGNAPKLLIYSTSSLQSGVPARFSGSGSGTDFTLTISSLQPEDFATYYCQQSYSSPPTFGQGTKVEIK : what is it?
78 min

The origin of these recorded values is patent US20140271653A1.
